Let's look at some sequences and their measured folding stability dG unfold.
Assay: folding stability dG unfold from chymotrypsin proteolysis; higher = more stable
QUANTITY MEASURED: folding stability dG unfold (kcal/mol)

INSERT INTO results (chain, quantity_measured, observed_value) VALUES
  ('SAGGSAGGSPAPDVTIEVKVTYDPETGALRIEVEATIPGGGKITIEYTIPPLDKIEIVGVKIESAGGSAGGS [r12_1029_TrMRF]', 'folding stability dG unfold', 3.83),
  ('SAGGSGMVRQEHEYRGPNGWHMRSEMYYSPENGMMNMEMEWVPVIKLPEDDPAKLKKLLAKEGIPISAGGSA [r2_304_TrROS]', 'folding stability dG unfold', 1.19),
  ('SAGGSAGGSAMTVRFGKPEELEKAEELAEEIAKAHPGKPIKVTVTKDPNNPDEYTVTITEESAGGSAGGSAG [r3_131_JUSTAS]', 'folding stability dG unfold', 0.544),
  ('SAGGSAGGSADKIEIRVKLKIPNTDEILTFPIWVDPENPEEVAKAIAAWLEKNGYEIESFEGSAGGSAGGSA [r18_3_TrMRF]', 'folding stability dG unfold', 4.14),
  ('SAGGSAGGSAGPFTIMVIERVPPDDPEYDKLHKDNGMPPENMIRIKIFRFKSPEQLKELFSAGGSAGGSAGG [r11_83_TrROS]', 'folding stability dG unfold', 2.12),
  ('SAGGSAGGSAGKTIVLKTPEAIKNLKEGDVIKLKDGKKYKIVKVEYDKETNYFTIEIEKESAGGSAGGSAGG [r11_316_TrROS_Hall]', 'folding stability dG unfold', 3.75),
  ('SAGGMILEIEFPPELIEELLEKLKKEFPDVEVKPLKIEYDPETGLVKVPILVKTKNPEEVEKIKKLAASAGG [r13_539_TrMRF]', 'folding stability dG unfold', 2.78),
  ('SAGGSVEIWILLPPNNPDLDKIREKLRDEPGIDDVNVKVVKPTPGYWVFEIEVNGDPEVADKIRDLISAGGS [r16_394_TrROS]', 'folding stability dG unfold', 1.61),
  ('SAGGSAGGSAGVKVLKNPGDSLVTVVTETTVTKTTTDPEGNTTTTPVKVTTTTLLEVPLTSAGGSAGGSAGG [r17_103_JUSTAS]', 'folding stability dG unfold', 0.215),
  ('SAGGSAMKKIPKENVEKVIEFTDKNGKKITIVYNKKTGKAYIFDKKTKKVIEIDMTEDEIKKLLKSSAGGSA [r15_810_TrROS_Hall]', 'folding stability dG unfold', 2.13),
  ('SAGGSAGGSAGGGSMTLELPLPEWSEEEIEALAEELKKKGLKVKEIERDPESDVVRITVESAGGSAGGSAGG [r7_906_JUSTAS]', 'folding stability dG unfold', 2.28),
  ('SAGGSAGGDPPNVKIEPEIEPRRDPDGKPYVKIPYTIELPDGRPIQIDMWIDPKNGNQGPHIHISAGGSAGG [r6_298_TrROS]', 'folding stability dG unfold', 0.486),
  ('SAGGEFRITFMVPADPNDPAVELAKWIADEFMPPGWKVEVDIKVVPSPDGYYMIDIPVEIMPPGQPISAGGS [r16_128_TrROS]', 'folding stability dG unfold', 2.81),
  ('SAGGRYWKLTTPPDRPLRLVIEPVPLEDTPEEYGSRLYIPNTGKVYYFPLKYAQEILDLPWIERLEPVSAGG [r19_302_TrMRF]', 'folding stability dG unfold', 0.343),
  ('SAGGPAGEEVPVRITARIYMPDPDGKMHSHEIPIDIPMPVDELKEKLIKEIMDEHGYHITEIDIEPYSAGGS [r16_511_TrROS]', 'folding stability dG unfold', -0.432),
  ('SAGKWVTIEIPIYIPGNPSQLKDLVEEIANILAAHGMKINVDVEVYPVDDYYIVKITVTVRMPPGMPIISAG [r5_217_TrROS]', 'folding stability dG unfold', 3.23),
  ('SAGGPWHEITVRAKGPPGNTPEQAVDEVADELADNNPDFTVEIQEVEVNPEDGQVEATIRVEDGKIVSAGGS [r8_26_TrROS]', 'folding stability dG unfold', -0.0882),
  ('SAGGSAGGSAGKVTLTIPFTNEDGTKYIAEFTFDELEVEEDVEIKIVSLGENFDLVLKPESAGGSAGGSAGG [r11_733_TrMRF]', 'folding stability dG unfold', 1.67),
  ('SAGKIKPGQKIKIKITSIEKLKDGTIKIKAEIELEEKGYKITIEAEIKYDKKTKKLTIKVKIKIEPKPSAGG [r19_342_TrROS_Hall]', 'folding stability dG unfold', 4.14),
  ('SAGEKIKEALKKAGVEKVEIVEIKRLKNGKVLIVIRLHPDMSEEQRRRLLKALADALREEFPDVKIVELSAG [r5_101_TrROS_Hall]', 'folding stability dG unfold', 4.33),
  ('SAGGKWKPIGKFEFTLPDGVKVTVTVEENPPLELKITAEVEIYVPPPKPPVPPLGPEEVKKWLEENKSAGGS [r16_6_TrMRF]', 'folding stability dG unfold', 1.86),
  ('SAGGMMYLKLKVKNKNGEEIEVLIEFDEKTGKAYIYNKKTGKKIEMTLEELLKQENIEIEEIEPLPEPSAGG [r13_994_TrROS_Hall]', 'folding stability dG unfold', 4.29),
  ('SAGGSAPPPNTIPIRVKIEDKNGKWETITFPVKSGDDAKDFLNDNFPNVKVEYDPGAGWVTIEVPKSAGGSA [r15_313_TrROS]', 'folding stability dG unfold', 0.2),
  ('SAGGMPPNATLSGKRVDFKPVPHPDGKTLLKIYYNGKPIEEIEVPPGEAEKLIAELPENTNIVTLPESAGGS [r8_41_JUSTAS]', 'folding stability dG unfold', -0.33),
  ('SAGWVVIEIPKKEIPINPENVQIQEDNDRRYIFIPGEDADELKDQFPNKDVKIEPMPPEQMDRFMKQLSAGG [r19_271_TrROS]', 'folding stability dG unfold', -0.242),
  ('SAGGMTASSTTLPPSGITSQTTTDPATGVTTTTTRYPDGTVTTTTTTALPPPAAATTTTTTALPGSAAASAG [r5_766_JUSTAS]', 'folding stability dG unfold', 1.68),
  ('SAGGSAGGSAGGMYITFDFEVPPNNPEVIEELKSKGIEYKKIEPKPDKVKVKVIIPEKLLSAGGSAGGSAGG [r7_41_JUSTAS]', 'folding stability dG unfold', -0.12);
